This listing pairs compounds with measured GI50.
Test system: SF-268
assay-summary: NCI tumour cell line growth inhibition, 48 h
Calls of active or inactive are those of the source. Rule as the data show it: active = GI50 up to about 1.1 µM and inactive = higher.
parameter-measured: GI50

compound	parameter-measured	observed
CN(C)C(=N)/N=C(\N)Nc1cccc(Cl)c1	GI50	35.4 µM (inactive)
FC(F)(F)c1cccc(/C=N/C23CC4CC(CC(C4)C2)C3)c1	GI50	> 100 µM (inactive)
c1cc(C2=NCCO2)c2ccsc2c1	GI50	> 100 µM (inactive)
Cc1ccc(S(=O)(=O)c2c(N)n(CCN(C)C)c3nc4ccccc4nc23)cc1	GI50	> 100 µM (inactive)
O=P1(c2ccccc2)Nc2ccccc2SSc2ccccc2N1	GI50	17.5 µM (inactive)
O=C1c2ccccc2CC12Cc1ccc3c(c1C2)CCC3 (configuration not stated)	GI50	30 µM (inactive)
C[N+](C)=C/C=C(\Cl)c1ccc2ccccc2c1	GI50	22.9 µM (inactive)

---

System: SK-MEL-5
assay-summary: NCI tumour cell line growth inhibition, 48 h
Calls of active or inactive are those of the source. Cut-off read from the data, not from the text of the source: active = GI50 up to about 1.1 µM and inactive = higher.
parameter-measured: GI50

smiles-notation	observed
Cn1c(NC(=O)NC23CC4CC(CC(C4)C2)C3)nc2ccccc21	91 µM (inactive)
FC(F)(F)c1cccc(/C=N/C23CC4CC(CC(C4)C2)C3)c1	> 100 µM (inactive)
Nc1c(-c2ccc(Cl)cc2Cl)[n+]([O-])c2ccccc2[n+]1[O-]	> 100 µM (inactive)
Nc1nc(N)c(-c2ccccc2)c(C(=O)Nc2ccccc2)n1	> 100 µM (inactive)
CN(O)C(=O)Cc1ccc(OCc2cccc(Cl)c2)cc1	> 100 µM (inactive)
O=C1/C(=C(\Nc2ccccc2)c2ccccc2)C=NN1c1ccccc1	26.7 µM (inactive)
CCc1cccc(C(C)(C)C)c1NC(=S)N/C=C(/C#N)C(N)=O	> 100 µM (inactive)
CN(C)CCNC(=O)c1cccc2c1nc(-c1ccccn1)c1ccccc12	15.2 µM (inactive)

---

System: 786-0
assay-summary: NCI tumour cell line growth inhibition, 48 h
The source made the active and inactive calls. Rule as the data show it: active = GI50 up to about 1.1 µM and inactive = higher.
Classes used: 1 (yes) = active, 0 (no) = inactive

compound	category-label
O=C(O)CSc1nnc(-c2ccco2)[nH]1	0 (no)
Cc1c(CCCl)c(Cl)n2c(nc3ccccc32)c1C#N	1 (yes)
CCOc1c2c(cc3c1C(=O)c1c(OC)cccc1C3=O)C=C(OC)CC2	0 (no)
CCC(=O)Oc1ccc2c(c1)c(=O)c1c(NCCCN(C)C)ccc3nnn2c31	1 (yes)
COc1cc2c(cc1OC)[C@H]1C(=O)c3cc4c(cc3[C@H]1N(C)C2=O)OCO4	0 (no)
O=c1oc2ccc(Cl)cc2cc1-c1cn2ccsc2n1	0 (no)
S=c1cc(-c2ccc3c(c2)OCO3)s[nH]1	0 (no)
O=C(O)[C@@H](NS(=O)(=O)c1ccc2ccccc2c1)c1ccccc1	0 (no)
O=C(O/N=C1/CCCC/C1=C\c1ccccc1)c1ccc(Cl)c(Cl)c1	0 (no)
O=C(Nc1ccccn1)/C(=C\C(=O)c1ccc(Cl)cc1)Nc1ccccc1	0 (no)
CCOC(=O)CSc1[nH]c(NC(=S)Nc2ccccc2)c(C(N)=O)c1C(N)=O	0 (no)
Clc1ccc2c(c1)[nH]c1c2nc2ccccn21	0 (no)
COC1(OC)CCCc2c1no[n+]2[O-]	0 (no)
CCOC(=O)CCc1c(C(=O)OCC)[nH]c(/C=C2\NC(=O)C(C)=C2CC)c1C	0 (no)
O=C(O)/C(Cc1ccnc2ccccc12)=N\O	0 (no)
CC(=O)Nc1ccc(/C=C/C(=O)c2sc(C(N)=S)nc2C)cc1	0 (no)
Nc1c(-c2ccc(Cl)cc2Cl)[n+]([O-])c2ccccc2[n+]1[O-]	0 (no)
CC1(CO)OC(n2cc(C(=O)NC(=O)OCc3ccccc3)c(=O)[nH]c2=O)CC1O (stereo not given)	0 (no)
COC(=O)c1c(C)oc2ccc(OC(C)=O)cc12	0 (no)
C=CCNC(=O)NCCCC(NC(C)=O)C(=O)NCc1ccccc1 (stereo not given)	0 (no)
COc1ccc(O)c(C(=O)CCC(=O)O)c1	0 (no)
CN1CCC23c4c5ccc(O)c4OC2C(=NN=C2CCC4(O)C6Cc7ccc(O)c8c7C4(CCN6C)C2O8)CCC3(O)C1C5 (stereo not given)	0 (no)
CC(=O)c1c2c(c3ccccc3c1O)O[C@@H]1OCC[C@H]21	0 (no)
CCn1c(CSc2nc(-c3ccccc3)c(-c3ccccc3)[nH]2)n[nH]c1=S	0 (no)
O=C(Nc1ccccc1)c1cc2ccccc2c(/N=N\c2cccc([N+](=O)[O-])c2)c1O	0 (no)

---

Test system: M14
assay-summary: NCI tumour cell line growth inhibition, 48 h
Activity calls are given as the source filed them. Cut-off read from the data, not from the text of the source: active = GI50 up to about 1.1 µM and inactive = higher.
Classes used: Yes (active), No (inactive)

compound	experimental-system	category-label
COc1ccccc1NC(=O)C1=C(C)NC(C)=C(C(=O)Nc2ccccc2OC)C1c1ccccc1[N+](=O)[O-]	M14	No
CCCCCC(C/C=N/N(C)C)C(O)(C(F)(F)F)C(F)(F)F (configuration not stated)	M14	No
CCOC(=O)c1c(SC(=O)c2ccc(OC)cc2)n(-c2ccccc2)c(=S)n(-c2ccccc2)c1=O	M14	No
COc1cc(-c2nc3ccccn3c2/N=C/c2cc(Br)cc(Br)c2O)ccc1O	M14	No
CC1=C[C@H](O)[C@@]2(C)[C@@H]([C@@H]1C)[C@H]1CC[C@@H]3[C@@]4(C)CC[C@H](O)C(C)(C)[C@@H]4CC[C@@]3(C)[C@]1(C)C[C@@H]2O	M14	No
CCCS(=O)OC1C(C2COC(C)(C)O2)OC2OC(C)(C)OC21 (configuration not stated)	M14	No
CC(=O)Nc1nc2c(=O)c3ccccc3sc2s1	M14	No
COc1ccc(-c2c(C(C)=O)c(-c3ccccc3)n(C3OC(CO)C(O)C(O)C3O)c(=S)c2C#N)cc1 (configuration not stated)	M14	No
C=C=C(C(=O)OC)[S+]([O-])c1ccc([N+](=O)[O-])cc1[N+](=O)[O-] (configuration not stated)	M14	No
Cc1cc(Cl)ccc1NC(=O)CC/C(CC(=O)C(C)C)=N\NC(=O)C[n+]1ccccc1	M14	No
O=C(NCc1cccnc1)C1COc2cc(-c3cc(=O)c4ccccc4o3)ccc2O1 (configuration not stated)	M14	No
COc1cccc(-c2cc(O)c3cc(OC)ccc3n2)c1	M14	Yes
O=C1CC2CCC(C1)[S+]2[O-] (configuration not stated)	M14	No
OCC(O)C(OC1OC(CO)C(O)C(O)C1O)c1nn(-c2ccccc2)c2nc3cc(Cl)ccc3nc12 (configuration not stated)	M14	No
C=C(C)[C@H]1[C@@H]2OC(=O)[C@H]1[C@]1(O)C[C@H]3OC34C(=O)O[C@H]2[C@@]41C.CC(C)(O)[C@H]1[C@@H]2OC(=O)[C@H]1[C@]1(O)C[C@H]3OC34C(=O)O[C@H]2[C@@]41C (some centres not stated)	M14	No
COc1ccc(/C=C/c2nsc(/C=C/c3ccc(OC)cc3)n2)cc1	M14	No
CC(=O)OCC1OC(Nn2c(=O)[nH]c3ccccc3c2=O)C(OC(C)=O)C(OC(C)=O)C1OC(C)=O (configuration not stated)	M14	No
Nc1nc(O)c2nc3c(nc2n1)C(=O)N(c1ccc(C(=O)O)cc1)C3	M14	No
Oc1ccc(NCn2c(=S)sc3ccccc32)cc1	M14	No
Cc1cc(C)cc(Sc2c([N+](=O)[O-])ncn2C)c1	M14	No
COc1cc2c(cc1OC)[C@H]1C(=O)c3cc4c(cc3[C@H]1N(C)C2=O)OCO4	M14	No
CN1C2CCC1CC(=CCOC(c1ccc(F)cc1)c1ccc(F)cc1)C2	M14	No

---

Tested on: SN12C
assay-summary: NCI tumour cell line growth inhibition, 48 h
Activity calls are given as the source filed them. No stated cut-off is given here; in the data, active = GI50 up to about 1.1 µM and inactive = higher.

compound	GI50
Cc1cc(C)n2c(nc3ccccc32)c1C#N	> 100 µM (inactive)
O=C(/C=C/c1ccccc1)N1CCCCC1	> 100 µM (inactive)
CNC(=O)OCc1nc(SC2CCCCO2)n(C)c1COC(=O)NC (stereo unspecified)	> 100 µM (inactive)
CN(O)C(=O)Cc1ccc(OCc2cccc(Cl)c2)cc1	> 100 µM (inactive)
CCCS(=O)OC1C(C2COC(C)(C)O2)OC2OC(C)(C)OC21 (stereo unspecified)	12.5 µM (inactive)
COC(=O)c1ccc(C)cc1CC1Cc2ccc(C)cc2C1=O (stereo unspecified)	12.2 µM (inactive)
OCC(O)C(OC1OC(CO)C(O)C(O)C1O)c1nn(-c2ccccc2)c2nc3cc(Cl)ccc3nc12 (stereo unspecified)	> 100 µM (inactive)
Cc1ccc(S(=O)(=O)N/N=C2\CCC3(O)CC2(C)CCC2C3CC2(C)C)cc1 (stereo unspecified)	57.8 µM (inactive)
COC(=O)c1ccccc1/N=C(/NC1CCCCCC1)NS(=O)(=O)c1ccc(C)cc1	> 100 µM (inactive)
COC(=N)C1(C#N)NC(c2ccsc2)C(C#N)(C#N)NC1c1ccsc1 (stereo unspecified)	> 100 µM (inactive)
CC1=NN2C=Nc3c(c(-c4ccc(Cl)cc4)cn3-c3ccc(C)cc3)C2N1 (stereo unspecified)	> 100 µM (inactive)

Ref: ChEMBL document CHEMBL1201862
